The measurements presented in this section are drawn from ChEMBL document CHEMBL4513216.

Test: Toxicity liver stage against HepG2, at 10uM
Assay type: cell-based
Design: test concentration 10 uM, cell line HepG2-A16-CD81EGFP
Assay conditions: human, HepG2-A16-CD81EGFP cells; read-out: INHIBITION
Recorded endpoint: cytotoxicity at 10 µM (%)
Your answer is read as %, so omit the unit and give the number.

See these solved cases before continuing.
Give recorded cytotoxicity at 10 µM. "COc1cccc(NC(=O)N(CCO)Cc2ccsc2)c1"
-9.87

Please report cytotoxicity at 10 µM for the following molecule: "Cc1n[nH]c(C)c1NC(=O)NCc1cc[nH]n1"
-5.18

Check the records and state cytotoxicity at 10 µM for "CCN1CCn2c(C)cnc2C12CCN(C(=O)C(C)C)CC2"
3.06

***
Please report cytotoxicity at 10 µM for the following molecule: CCC(CNC(=O)Cc1cc(C)on1)Oc1cccc(F)c1 (stereo unspecified)
-48.2

Complete the entry with cytotoxicity at 10 µM for "Cc1nc(N[C@H]2COC[C@@H]2N2CCCCC2)c2c(C)nn(C)c2n1"
-1.21

Given the molecule CC(O)c1cn(Cc2ccc(F)cc2)nn1 (stereo unspecified) , write its reported cytotoxicity at 10 µM.
4.78
